target: UniProt:P41145; experiment: Radioligand competition binding, [3H]U69,593, membranes of transfected CHO cells (Kappa-CN)
experimentalReadout: Ki
Put your answer as a value accompanied by its unit after it.

Guide cases for Ki, answers given:
sampleSmiles: CC(C)[C@@H](CN1CCC(c2cccc(C#N)c2)CC1)NC(=O)[C@H]1Cc2ccc(O)cc2CN1
targetOrSystem: UniProt:P41145
Ki: 3.86 nM
--
sampleSmiles: CC(C)[C@@H](CN1CCC(c2cccc(CNC(=O)[C@@H](N)CCCNC(=N)N)c2)CC1)NC(=O)[C@H]1Cc2ccc(O)cc2CN1
targetOrSystem: UniProt:P41145
Ki: 2.11 nM
--
sampleSmiles: CC(C)[C@@H](CN1CCC(c2cccc(O)c2)CC1)NC(=O)[C@H]1Cc2ccc(C#N)cc2CN1
targetOrSystem: UniProt:P41145
Ki: 6.73 nM
--
sampleSmiles: CC(C)[C@@H](CN1CCC(c2cccc(CN)c2)CC1)NC(=O)[C@H]1Cc2ccc(O)cc2CN1
targetOrSystem: UniProt:P41145
Ki: 1.08 nM
--
sampleSmiles: CC(C)[C@@H](CN1CCC(c2cccc(CNC(=O)[C@@H](N)CCCNC(=N)N)c2)CC1)NC(=O)[C@H]1Cc2ccccc2CN1
targetOrSystem: UniProt:P41145
Ki: 56.1 nM

Query string: Input CC(C)[C@@H](CN1CCC(C2CCCCC2)CC1)NC(=O)[C@H]1Cc2ccc(O)cc2CN1 , output reported Ki.
Result string: 0.253 nM

* * *

target: human KOP receptor (Homo sapiens); experiment: Radioligand competition binding, [3H]U69,593, membranes of transfected CHO cells (Kappa-CN); conditions: [3H]U69,593 displacement; Cheng-Prusoff; mean ± SEM, at least three experiments in triplicate; read-out: Receptor Binding, Ki KOP
Returns: string. Value is class 1 if measured Ki is below 0.4 µM, and class 0 if it is greater than or equal to it.

Query string: Field: below-cutoff. Rule: recorded Ki strictly less than 0.4 µM. Subject: CC(C)[C@@H](CN1CCC(c2cccc(O)c2)CC1)NC(=O)[C@@H](N)CCCCN
Result string: class 0

Query string: Field: below-cutoff. Rule: recorded Ki strictly less than 0.4 µM. Subject: CC(C)[C@@H](CN1CCC(c2cccc(C#N)c2)CC1)NC(=O)[C@H]1Cc2ccccc2CN1
Result string: class 0

Query string: Field: below-cutoff. Rule: recorded Ki strictly less than 0.4 µM. Subject: CC(C)[C@@H](CN1CCC(c2cccc(O)c2)CC1)NC(=O)[C@H]1Cc2ccc(CNS(C)(=O)=O)cc2CN1
Result string: class 1

Query string: Field: below-cutoff. Rule: recorded Ki strictly less than 0.4 µM. Subject: CC(C)[C@@H](CN1CCC(c2cccc(O)c2)CC1)NC(=O)[C@@H](N)CCCNC(=N)N
Result string: class 1

Query string: Field: below-cutoff. Rule: recorded Ki strictly less than 0.4 µM. Subject: CC(C)[C@@H](CN1CCC(c2cccc(O)c2)CC1)NC(=O)[C@H]1Cc2ccc(CNC(=N)N)cc2CN1
Result string: class 1

Query string: Field: below-cutoff. Rule: recorded Ki strictly less than 0.4 µM. Subject: CC(C)[C@@H](CN1CCC(c2cccc(O)c2)CC1)NC(=O)[C@H]1Cc2ccc(CN)cc2CN1
Result string: class 1

* * *

target: human MOP receptor (Homo sapiens, UniProt P35372); experiment: biochemical
Provide the reported Kb of each item.
Numbers only, in nM.

sampleSmiles: CC(C)[C@@H](CN1CCC(C2CCCCC2)CC1)NC(=O)[C@H]1Cc2ccc(O)cc2CN1
Kb, nM: 0.692

sampleSmiles: CC(C)[C@@H](CN1CCC(c2cccc(CN)c2)CC1)NC(=O)[C@H]1Cc2ccc(O)cc2CN1
Kb, nM: 15.5

sampleSmiles: CC(C)[C@@H](CN1CCC(c2cccc(CNC(=O)[C@@H](N)CCCNC(=N)N)c2)CC1)NC(=O)[C@H]1Cc2ccc(O)cc2CN1
Kb, nM: 0.692

Query string: Input CC(C)[C@@H](CN1CCC(c2cccc(C#N)c2)CC1)NC(=O)[C@H]1Cc2ccc(O)cc2CN1 , output reported Kb.
Result string: 8.13
